meta.source: paper PMC12136788

# TESTED TARGET: T1, UNK ZnF1-6 (called full-length) (human, UniProt Q9C0B0 30-357)
# T1 sequence: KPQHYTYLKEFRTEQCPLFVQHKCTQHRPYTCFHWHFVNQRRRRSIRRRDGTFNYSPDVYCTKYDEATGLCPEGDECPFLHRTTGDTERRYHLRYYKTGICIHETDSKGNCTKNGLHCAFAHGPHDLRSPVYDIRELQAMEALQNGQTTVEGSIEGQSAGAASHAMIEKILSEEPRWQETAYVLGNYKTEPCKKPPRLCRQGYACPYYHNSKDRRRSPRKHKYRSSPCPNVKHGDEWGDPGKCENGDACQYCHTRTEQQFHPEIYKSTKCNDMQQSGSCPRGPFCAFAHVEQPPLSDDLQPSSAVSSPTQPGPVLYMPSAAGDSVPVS
# ASSAY NAME: nsRBNS (natural sequence RNA bind-n-seq); RBNS binding buffer (assumed for nsRBNS): 25 mM Tris pH 7.5, 150 mM KCl, 3 mM MgCl2, 0.01% Triton X-100, 500 ug/ml BSA, 20 U/ml SUPERase-In, 4 C; UNK is unkempt and MSI1 is Musashi-1; names of the RNAs are library labels; protein concentration not given here; high values mean tight binding
The full ranking holds about 5,800 sequences; the median of “enrichment r” is about 0.68, and the highest 2% start at about 11. This excerpt belongs to a sample that is enriched for the highest values.
Kindly state binding signal for each of the entries shown.
Write your answer as a measured quantity: the number, then the unit.

Dear colleague, please send me the reported binding signal for chr1:6525536:6525637:-|3pUTR|ENSG00000162408|msi1|total|mutant (ssRNA) RNA: GGGAGUUCUACAGUCCGACGAUCACAGUUUGUGUGCCAUUAAAACAGAGAUUCCUCAGAAAGUUCUUCAGGGACCUGGUUAUCCGAAUCAGGAUAAAAAUAAGGAAACUGGGGCCAUUACAAUGUACCGAGAAGGAAGGAAGACAACAGAGGAUUGAGCAUCA when you can.
0.553 enrichment R

Give me measured binding signal, please, for this binder: chr1:93361585:93361687:+|3pUTR|ENSG00000117505|unk|FALSE|unique (ssRNA) RNA: GGGAGUUCUACAGUCCGACGAUCUUUAACUUGUAGUUAUAGUUUACUUAUUGUUUUUAGAAUUACUUUUACAUUUUCCCAACUAGAUGGCCUAGAGUCCAACAUUACCUUUUGAGAUGACAUUAUUGUCUCCAUAAUUGAGUGCAACAGAGGAUUGAGCAUCA
152 enrichment R

Give the reported value of binding signal for this record: chr11:118750849:118750950:-|3pUTR|ENSG00000110367|msi1|FALSE|unique (ssRNA) RNA: GGGAGUUCUACAGUCCGACGAUCAUUCUAGAAAGUACUUUGGCCUCGUGCUGUAGAGAGCAGAUUUCUAUGGUACCCUGUGUUAGUAAAGGGGCCCAGAAAUCUGGGAUGUACUGUUUGCUGCCACACUGUCUCAUCUAGUACCAACAGAGGAUUGAGCAUCA
0.975 enrichment R

Assign binding signal to the following record: chr15:93027272:93027374:+|3pUTR|ENSG00000173575|unk|total|mutant (ssRNA) RNA: GGGAGUUCUACAGUCCGACGAUCCCAGGAAUCUGUGAGGAUGGUAUUCCCUGGAGUCUGGCUUUGAAAGAUUUCAUUGUUGGCCGAAAUAACAGGUUGAGAAAGAGGGAGUCCGCAUCACCUAAAACCUGCACGUGAACAAGGCAACAGAGGAUUGAGCAUCA
0.486 enrichment R

For chr7:7607225:7607326:+|3pUTR|ENSG00000164654|msi1|total|mutant (ssRNA) RNA: GGGAGUUCUACAGUCCGACGAUCUUUGAGUGAUUUUGAUAUGCUUCACAGAGACAAAUGCUGCCAAAAUAAACAUCGAAGUACCGACAUGAGUUCUGUUCAGCAGGUUGAAAAGUCUGAUUCCGAAAAACUUUCUAAGUUUUGCAACAGAGGAUUGAGCAUCA , write its binding signal.
0.348 enrichment R

Quote binding signal reported for chr3:129431351:129431457:-|3pUTR|ENSG00000129071|unk|total|mutant (ssRNA) RNA: GGGAGUUCUACAGUCCGACGAUCACUUCAAAAAAGCUUAAUUAAGUACAACCAACCACCUUUCCAGCCACCGAGAUUUUAAUCCGCCCAACCCGAAGCCCCGUGUGUGUGCUUUCUUAAUGUGUGUGCCAAUGGUGGAUCUUUCAACAGAGGAUUGAGCAUCA please.
0.636 enrichment R

For the binder ENSG00000124766:be:win_601|CDS|ENSG00000124766|bound_else_gene|NA|bound_elsewhere_windowed (ssRNA) RNA: GGGAGUUCUACAGUCCGACGAUCUCCAAAGUGGCGGGCGGCGCGGGCGGUGGGGUUAGCAAACCGCACGCCAAGCUCAUCCUGGCAGGCGGCGGCGGCGGCGGGAAAGCAGCGGCUGCCGCCGCCGCCUCCUUCGCCGCCGAACAACAGAGGAUUGAGCAUCA , report binding signal.
0.449 enrichment R
